Target: beta-glucuronidase (Escherichia coli, UniProt P05804)
Construct: purchased Sigma Chemical Co
Sequence (P05804 whole entry): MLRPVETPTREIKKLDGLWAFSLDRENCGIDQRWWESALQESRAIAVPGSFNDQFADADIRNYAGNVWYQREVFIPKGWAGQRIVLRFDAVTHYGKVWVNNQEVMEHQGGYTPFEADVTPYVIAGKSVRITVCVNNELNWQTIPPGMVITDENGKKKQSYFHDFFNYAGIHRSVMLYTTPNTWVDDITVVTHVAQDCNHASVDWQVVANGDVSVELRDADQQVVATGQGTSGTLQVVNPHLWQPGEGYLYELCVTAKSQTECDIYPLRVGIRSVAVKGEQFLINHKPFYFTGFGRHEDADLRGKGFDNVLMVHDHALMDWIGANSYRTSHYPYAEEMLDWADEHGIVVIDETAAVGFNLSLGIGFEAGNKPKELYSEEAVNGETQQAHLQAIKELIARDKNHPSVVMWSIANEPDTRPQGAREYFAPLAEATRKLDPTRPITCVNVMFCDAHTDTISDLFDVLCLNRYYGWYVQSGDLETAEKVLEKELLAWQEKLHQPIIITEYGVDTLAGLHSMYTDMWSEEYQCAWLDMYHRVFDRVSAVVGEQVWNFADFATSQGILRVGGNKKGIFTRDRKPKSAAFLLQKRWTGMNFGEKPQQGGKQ
Assay: Semiquantitative assay of beta-glucuronidase (4-MUG to fluorescent 4-MU)
Type: biochemical, E. coli
Set-up: key: + indicates enzyme inhibition; - indicates no enzyme inhibition
Settings: test inhibitor at 0.1 mM to 100 mM, 37° C., Tris pH 7, fluorescence by UV lamp
result type: inhibition of BETA-G

Check out these entries, answers already filled in.
{"compound": "O=C(O)CN(CCN(CC(=O)O)CC(=O)O)CC(=O)O [EDTA, reference compound]", "result type": "inhibition of BETA-G", "data value": "+"}
{"compound": "[Cu+2]", "result type": "inhibition of BETA-G", "data value": "+"}
{"compound": "c1cnc2c(c1)ccc1cccnc12", "result type": "inhibition of BETA-G", "data value": "+"}
{"compound": "O=C(O)[C@@H](O)[C@H]1OC(=O)[C@H](O)[C@H]1O [D-glucaro-.tangle-solidup.-lactone, reference compound]", "result type": "inhibition of BETA-G", "data value": "+"}

Enquiry: Look up inhibition of BETA-G: O=C(O)CC(O)(CC(=O)O)C(=O)O [Citrate]
Return: -
